- System: Streptococcus sp.
- Experiment: in vitro antibacterial evaluation, MIC by broth dilution
- Type: cell-based
- Assay Context: broth dilution, 18 hours at 35° C.
Numbered stars: 1 amine (or outer) side, 2 acyl side, 3 side chain; on linkers, the order of the positions; unused ones are H or OH. Square brackets hold non-standard residues; d marks the D form. Peptide text beside a SMILES is read from it. * marks the point of attachment. ξ: configuration not given here. X1 = N=C1NCC(C(O)C(N[*:1])C(=O)[*:2])N1C1OC(CO)C(O)C(O)C1O; ξEnduracididine(βξ-OH,4'ξ) = N=C1NCC(C(O)C(N)C(=O)O)N1; X2 = OCC1OC(OC2C(CO)OC(*)C(O)C2O)C(O)C(O)C1O; Diphenylacetyl = O=C(C(c1ccccc1)c1ccccc1)*; ξPhe(βξ-Me) = CC(c1ccccc1)C(N)C(=O)O
Attribute Measured: MIC Streptococcus pneumoniae (GC 4565) (µg/mL)
Give the number; µg/mL is assumed, so skip it.

# compound CC(c1ccccc1)C1NC(=O)CNC(=O)C(CO)NC(=O)C(C(O)C2CN(c3nc4ccccc4o3)C(=N)N2C2OC(CO)C(O)C(O)C2O)NC(=O)C(C(O)C2CNC(=Nc3nc4ccccc4o3)N2)NC(=O)C(Cc2ccc(OC3OC(CO)C(OC4OC5COC6(OC5C(O)C4O)C4CC5CC(C4)CC6C5)C(O)C3O)cc2)NC1=O (stereo not shown) [Example 227] ; its MIC Streptococcus pneumoniae (GC 4565) = 64

# compound CC(c1ccccc1)C1NC(=O)CNC(=O)C(COC(=O)C(c2ccccc2)c2ccccc2)NC(=O)C(C(O)C2CNC(=N)N2C2OC(CO)C(O)C(O)C2O)NC(=O)C(C(O)C2CNC(=N)N2)NC(=O)C(Cc2ccc(OC3OC(CO)C(OC4OC(CO)C(O)C(O)C4O)C(O)C3O)cc2)NC1=O (stereo not drawn) [Example 96a] (cyclo(G[ξPhe(βξ-Me)]Y(X2)[ξEnduracididine(βξ-OH,4'ξ)][X1]S(Diphenylacetyl)); configuration not given here) ; its MIC Streptococcus pneumoniae (GC 4565) = 16

# compound CC(c1ccccc1)C1NC(=O)CNC(=O)C(CO)NC(=O)C(C(O)C2CN(c3ncccn3)C(=N)N2C2OC(CO)C(O)C(O)C2O)NC(=O)C(C(O)C2CNC(=Nc3ncccn3)N2)NC(=O)C(Cc2ccc(OC3OC(CO)C(OC4OC(CO)C(O)C(O)C4O)C(O)C3O)cc2)NC1=O (stereo not shown) [Example 92] ; its MIC Streptococcus pneumoniae (GC 4565) = 128

# compound COc1ccc2cc(COC3C(CO)OC(OC4C(CO)OC(Oc5ccc(CC6NC(=O)C(C(C)c7ccccc7)NC(=O)CNC(=O)C(CO)NC(=O)C(CC7CNC(=N)N7C7OC(CO)C(O)C(O)C7O)NC(=O)C(CC7CNC(=N)N7)NC6=O)cc5)C(O)C4O)C(O)C3O)ccc2c1 (stereo not shown) [Example 245a] ; its MIC Streptococcus pneumoniae (GC 4565) = 1

---

- System: Staphylococcus sp.
- Experiment: in vitro antibacterial evaluation, MIC by broth dilution
- Type: cell-based
- Assay Context: broth dilution, 18 hours at 35° C.
Each item that follows carries a reported MIC Staphylococcus aureus (GC 4544).
Give the number; µg/mL is assumed, so skip it.

CC(c1ccccc1)C1NC(=O)CNC(=O)C(CO)NC(=O)C(C(O)C2CNC(=N)N2C2OC(CO)C(O)C(O)C2O)NC(=O)C(C(O)C2CNC(=N)N2)NC(=O)C(Cc2ccc(OC3OC(CO)C(OC4OC5COC(CCc6ccccc6)OC5C(O)C4O)C(O)C3O)cc2)NC1=O (centres unmarked) = 2

Turning now to a further record.
Let me check: CCCC(C)C1OCC2OC(OC3C(CO)OC(Oc4ccc(CC5NC(=O)C(C(C)c6ccccc6)NC(=O)CNC(=O)C(CO)NC(=O)C(C(O)C6CNC(=N)N6C6OC(CO)C(O)C(O)C6O)NC(=O)C(C(O)C6CNC(=N)N6)NC5=O)cc4)C(O)C3O)C(O)C(O)C2O1 (centres unmarked) , system Staphylococcus sp., measured MIC Staphylococcus aureus (GC 4544) is 1

---

Each item that follows carries a reported MIC Coagulase Negative Staphylococcus (GC 4549).
- Test system: Staphylococcus sp.
- Experiment: in vitro antibacterial evaluation, MIC by broth dilution
- Assay type: cell-based
- Assay Context: broth dilution, 18 hours at 35° C.
- Description: Methods for in vitro Antibacterial Evaluation (Table 1) […]
Give the number; µg/mL is assumed, so skip it.

CC(c1ccccc1)C1NC(=O)CNC(=O)C(CO)NC(=O)C(C(O)C2CNC(=N)N2C2OC(CO)C(O)C(O)C2O)NC(=O)C(C(O)C2CNC(=N)N2)NC(=O)C(Cc2ccc(OC3OC(CO)C(OC4OC(COC(=O)C(c5ccccc5)c5ccccc5)C(O)C(O)C4O)C(O)C3O)cc2)NC1=O (stereo not shown) [Example 96c] = 1

# molecule COc1ccc2cc(COCC3OC(OC4C(CO)OC(Oc5ccc(CC6NC(=O)C(C(C)c7ccccc7)NC(=O)CNC(=O)C(CO)NC(=O)C(CC7CNC(=N)N7C7OC(CO)C(O)C(O)C7O)NC(=O)C(CC7CNC(=N)N7)NC6=O)cc5)C(O)C4O)C(O)C(O)C3O)ccc2c1 (stereo not shown) ; its MIC Coagulase Negative Staphylococcus (GC 4549) = 1

---

- Tested on: Streptococcus sp.
- Experiment: in vitro antibacterial evaluation, MIC by broth dilution
- Assay type: cell-based
- Assay Context: Streptococcus pneumoniae (GC 1894); broth dilution, 18 hours at 35° C.
Each item that follows carries a reported MIC Streptococcus pneumoniae (GC 1894).

CC(c1ccccc1)C1NC(=O)CNC(=O)C(CO)NC(=O)C(C(O)C2CNC(=N)N2C2OC(CO)C(O)C(O)C2O)NC(=O)C(C(O)C2CNC(=N)N2)NC(=O)C(Cc2ccc(OC3OC(CO)C(OC4OC5COC(c6cc7c(cc6Cl)OCO7)OC5C(O)C4O)C(O)C3O)cc2)NC1=O (centres unmarked) [Example 158] = <0.06 µg/mL

# compound CC(c1ccccc1)C1NC(=O)CNC(=O)C(CO)NC(=O)C(C(O)C2CNC(=N)N2C2OC(CO)C(O)C(O)C2O)NC(=O)C(C(O)C2CNC(=N)N2)NC(=O)C(Cc2ccc(OC3OC(CO)C(OC4OC5COC(CCc6ccccc6)OC5C(O)C4O)C(O)C3O)cc2)NC1=O (centres unmarked) [Example 124] ; its MIC Streptococcus pneumoniae (GC 1894) = <0.06 µg/mL

---

Each item that follows carries a reported MIC Streptococcus pneumoniae (GC 4565).
- Tested on: Streptococcus sp.
- Experiment: in vitro antibacterial evaluation, MIC by broth dilution
- Assay type: cell-based
- Assay Context: broth dilution, 18 hours at 35° C.; strain GC 4565

CC(c1ccccc1)C1NC(=O)CNC(=O)C(CO)NC(=O)C(C(O)C2CN(Cc3ccccc3-c3ccccc3)C(=N)N2C2OC(CO)C(O)C(O)C2O)NC(=O)C(C(O)C2CNC(=N)N2)NC(=O)C(Cc2ccc(OC3OC(CO)C(OC4OC(CO)C(O)C(O)C4O)C(O)C3O)cc2)NC1=O (stereo not shown) = 128 µg/mL
CC(c1ccccc1)C1NC(=O)CNC(=O)C(CO)NC(=O)C(CC2CNC(=N)N2C2OC(CO)C(O)C(O)C2O)NC(=O)C(CC2CNC(=N)N2)NC(=O)C(Cc2ccc(OC3OC(CO)C(OC4OC(CO)C(O)C(O)C4O)C(O)C3O)cc2)NC1=O (stereo not shown) [Example 277a] = >128 µg/mL
CC(c1ccccc1)C1NC(=O)CNC(=O)C(CO)NC(=O)C(C(O)C2CN(CCCCCCCCCCC(=O)O)C(=N)N2C2OC(CO)C(O)C(O)C2O)NC(=O)C(C(O)C2CNC(=N)N2)NC(=O)C(Cc2ccc(OC3OC(CO)C(OC4OC(CO)C(O)C(O)C4O)C(O)C3O)cc2)NC1=O (stereo not shown) = 64 µg/mL

Turning now to a further record.
# compound CC(c1ccccc1)C1NC(=O)CNC(=O)C(CO)NC(=O)C(CC2CNC(=N)N2C2OC(CO)C(O)C(O)C2O)NC(=O)C(CC2CNC(=N)N2)NC(=O)C(Cc2ccc(OC3OC(CO)C(OC4OC(CO)C(O)C(OCc5ccc(OCc6ccccc6)cc5)C4O)C(O)C3O)cc2)NC1=O (stereo not shown) [Example 246b] ; its MIC Streptococcus pneumoniae (GC 4565) = 64 µg/mL

---

- System: Enterococcus sp.
- Experiment: in vitro antibacterial evaluation, MIC by broth dilution
- Format: cell-based
- Assay Context: Enterococcus faecium (GC 4556); broth dilution, 18 hours at 35° C.
Each item that follows carries a reported MIC Enterococcus faecium (GC 4556).
Give the number; µg/mL is assumed, so skip it.

CC(C)CC(=O)OC1C(O)C(CO)OC(OC2C(CO)OC(Oc3ccc(CC4NC(=O)C(C(C)c5cccc(F)c5)NC(=O)CNC(=O)C(CO)NC(=O)C(C(O)C5CNC(=N)N5C5OC(CO)C(O)C(O)C5O)NC(=O)C(C(O)C5CNC(=N)N5)NC4=O)cc3)C(O)C2O)C1O (stereo not drawn) [Example 264b] = 64

Turning now to a further record.
# molecule CCCCCC1OCC2OC(OC3C(CO)OC(Oc4ccc(CC5NC(=O)C(C(C)c6ccccc6)NC(=O)CNC(=O)C(CO)NC(=O)C(C(O)C6CNC(=N)N6C6OC(CO)C(O)C(O)C6O)NC(=O)C(C(O)C6CNC(=N)N6)NC5=O)cc4)C(O)C3O)C(O)C(O)C2O1 (stereo not drawn) ; its MIC Enterococcus faecium (GC 4556) = 2
